Data credit: patent US8937167B2

pEC50 overview
Assay System: FimH (Escherichia coli)
Method Notes: cell-based
Friendly reminder that pEC50 comes from taking -log10 of the concentration in mol/L.

The following compounds have reported results that may help.
INSERT INTO results (compound, val) VALUES
  ('CS(=O)(=O)Nc1cccc(-c2ccc(OC3OC(CO)C(O)C(O)C3O)cc2)c1 (centres unmarked)', 5.70),
  ('O=C(O)c1cccc(OC2OC(CO)C(O)C(O)C2O)c1 (centres unmarked)', 4.22),
  ('NC(=O)c1ccc(OC2OC(CO)C(O)C(O)C2O)cc1 (centres unmarked)', 4.82),
  ('O=[N+]([O-])c1ccc(O[C@H]2O[C@H](CO)[C@@H](O)[C@H](O)[C@@H]2O)cc1', 4.51),
  ('O=C(O)c1cccc(-c2ccc(OC3OC(CO)C(O)C(O)C3O)cc2)c1 (centres unmarked) [Compound 14c]', 5.40),
  ('OC[C@H]1O[C@H](Oc2ccccc2)[C@@H](O)[C@@H](O)[C@@H]1O [Compound 3a, phenyl mannoside]', 4.52);

// moving on: another record for pEC50
Given N#Cc1ccc(OC2OC(CO)C(O)C(O)C2O)cc1 (centres unmarked) , respond with its pEC50.
4.52

----------
Assay System: FimH (Escherichia coli, UniProt Q1R2J4)
Readout Kind: HAI Titer EC>90 (µM)
Could you give me the number in µM? Just the number is fine.

The following compounds have reported results that may help.
INSERT INTO results (compound, readout_kind, val) VALUES
  ('CS(=O)(=O)Nc1ccccc1-c1ccc(OC2OC(CO)C(O)C(O)C2O)cc1 (centres unmarked) [Compound 3ZFH163]', 'HAI Titer EC>90', 12.000),
  ('COC(=O)c1cccc(-c2ccc(OC3O[C@@H](CO)[C@@H](O)[C@H](O)[C@H]3O)c(C)c2)c1 (some centres unmarked) [Compound 4ZFH224]', 'HAI Titer EC>90', 0.125),
  ('COC(=O)c1cccc(-c2ccc(OC3OC(CO)C(O)C(O)C3O)c(Cl)c2)c1 (centres unmarked) [Compound 4ZFH49]', 'HAI Titer EC>90', 0.032),
  ('N#Cc1ccccc1OC1OC(CO)C(O)C(O)C1O (centres unmarked) [Compound 2ZFH108]', 'HAI Titer EC>90', 6.000),
  ('CC(=O)Nc1cccc(-c2ccc(OC3OC(CO)C(O)C(O)C3O)cc2)c1 (centres unmarked) [Compound 2ZFH6]', 'HAI Titer EC>90', 2.000);

GET HAI Titer EC>90 | system: FimH (Escherichia coli, UniProt Q1R2J4) | item: NC(=O)c1cccc(OC2OC(CO)C(O)C(O)C2O)c1 (centres unmarked) [Compound 2ZFH98]
16.000

GET HAI Titer EC>90 | system: FimH (Escherichia coli, UniProt Q1R2J4) | item: COC(=O)c1sc(-c2ccc(OC3OC(CO)C(O)C(O)C3O)cc2)cc1NC(N)=O (centres unmarked) [Compound 4ZFH52-JJ]
0.016

GET HAI Titer EC>90 | system: FimH (Escherichia coli, UniProt Q1R2J4) | item: O=C(c1cccc(-c2ccc(OC3OC(CO)C(O)C(O)C3O)cc2)c1)N1CCNCC1 (centres unmarked) [Compound 3ZFH284];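 further: hemagglutination inhibition of guinea pig erythrocytes agglutinated by type 1 piliated uropathogenic E. coli via FimH mannose binding, quantified through serial dilutions of compound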
4.0000

----------
Here's a batch of compounds along with measured HAI Titer EC>90 for UniProt Q1R2J4.
Could you give me the number in µM? Just the number is fine.

The following compounds have reported results that may help.
INSERT INTO measurements (compound, assay_system, readout_kind, val) VALUES
  ('OCC1OC(Oc2ccc(-c3ccncc3)cc2)C(O)C(O)C1O (stereo not drawn)', 'UniProt Q1R2J4', 'HAI Titer EC>90', 2.000),
  ('O=C(NCCCCCCCCNC(=O)c1cccc(-c2ccc(OC3OC(CO)C(O)C(O)C3O)cc2)c1)c1cccc(-c2ccc(OC3OC(CO)C(O)C(O)C3O)cc2)c1 (stereo not drawn)', 'UniProt Q1R2J4', 'HAI Titer EC>90', 2.00),
  ('COC(=O)c1cccc(-c2ccc(OC3O[C@@H](CO)[C@@H](O)[C@H](O)[C@H]3O)c(OC)c2)c1 (stereo partly drawn)', 'UniProt Q1R2J4', 'HAI Titer EC>90', 0.188),
  ('COC(=O)c1cccc(-c2ccc(C(=O)NCC3O[C@@H](CO)[C@@H](O)[C@H](O)[C@H]3O)cc2)c1 (stereo partly drawn)', 'UniProt Q1R2J4', 'HAI Titer EC>90', 16.000),
  ('CNC(=O)c1cccc(-c2ccc(OC3OC(CO)C(O)C(O)C3O)cc2C(=O)OC)c1 (stereo not drawn)', 'UniProt Q1R2J4', 'HAI Titer EC>90', 2.000),
  ('OCC1OC(Oc2cc(C(F)(F)F)cc(C(F)(F)F)c2)C(O)C(O)C1O (stereo not drawn)', 'UniProt Q1R2J4', 'HAI Titer EC>90', 32.000);

Given O=[N+]([O-])c1ccc(COC2OC(CO)C(O)C(O)C2O)cc1 (stereo not drawn) , respond with its HAI Titer EC>90.
60.000

Given OC[C@@H]1OC(Oc2ccc(-c3ccc4ncncc4c3)cc2)[C@H](O)[C@@H](O)[C@@H]1O (stereo partly drawn) , respond with its HAI Titer EC>90.
0.375

Given CCc1ccc(OC2OC(CO)C(O)C(O)C2O)cc1 (stereo not drawn) , respond with its HAI Titer EC>90.
23.000

Given O=C(NCCCCOC1OC(CO)C(O)C(O)C1O)c1ccc(C(=O)O)c(-c2c3ccc(=O)cc-3oc3cc(O)ccc23)c1 (stereo not drawn) [Compound 1ZFH134A] , respond with its HAI Titer EC>90.
125.000
